- Test system: Saccharomyces cerevisiae
- assay: protein stability index of tFT-peptide fusion (C-terminal peptide) (PSI (0-1 scale)); higher = more stable (slower turnover)
- settings: genetic background: wild type; temperature: 30 C
measurementKind: protein stability index
Number, no unit, nothing else.

Q) Observed protein stability index on Saccharomyces cerevisiae for VARWVYALGLLC , please.
A) 0.221

Q) Find protein stability index (Saccharomyces cerevisiae) for the entry CMAWLSVLKTLF
A) 0.421

Q) Can you look up protein stability index on Saccharomyces cerevisiae for FALPPSLLLLSA ?
A) 0.449

Q) Param readout = protein stability index; param system = Saccharomyces cerevisiae; param query = MLIAISASAARF ; response: value
A) 0.44

Q) Missing value: protein stability index, Saccharomyces cerevisiae, entry LPVSLWLVCSFF . Fill in?
A) 0.358

Q) Write down the reported protein stability index of RLPSSNVRYWVS , test system: Saccharomyces cerevisiae.
A) 0.183

Q) Lookup: protein stability index / Saccharomyces cerevisiae / FKWVSRIRLLDA
A) 0.246

Q) Give protein stability index (Saccharomyces cerevisiae) of the following sequence: VSIRVVVWVSWG
A) 0.143

Q) Fill in the recorded protein stability index for this sequence, with Saccharomyces cerevisiae as test system: FLFQYLCIISSL
A) 0.0716

Q) Notebook entry, Saccharomyces cerevisiae assay: protein stability index of VISVFAISTRVD = ?
A) 0.414

Q) Reported protein stability index for Saccharomyces cerevisiae, given KVLLYWRHAQRQ ?
A) 0.44

Q) Field: protein stability index (Saccharomyces cerevisiae). Entry: NMVSMVVVIFGV
A) 0.24

Q) Request: protein stability index, test system Saccharomyces cerevisiae, entry ESCIFLMWLTVL
A) 0.0868

Q) Give the reported protein stability index for WNIVKHREDMLS (system: Saccharomyces cerevisiae).
A) 0.621

Q) Which protein stability index is reported with Saccharomyces cerevisiae for this entry: CEERVKSRLKQN ?
A) 0.18

Q) What protein stability index appears in the records for this sequence with Saccharomyces cerevisiae? RIRLYWVLRRLG
A) 0.0992

Q) Missing value: protein stability index, Saccharomyces cerevisiae, entry PALPQPMNPAPP . Fill in?
A) 0.66

Q) Please provide the recorded protein stability index for SFLCILIFPFFP , tested on Saccharomyces cerevisiae.
A) 0.408

Q) # returns recorded protein stability index (system: Saccharomyces cerevisiae) for SDVLVVWVFFCR
A) 0.263

Q) Param readout= protein stability index; system= Saccharomyces cerevisiae; entry= KNVFLIRGRKNC ; returns value.
A) 0.193

Q) Missing value: protein stability index, Saccharomyces cerevisiae, entry VLRACCDWGFLV . Fill in?
A) 0.108

Q) Return protein stability index measured with Saccharomyces cerevisiae given this sequence: FSQGFRSPSECL
A) 0.655

Q) // map CFVISVLFFFVG to recorded protein stability index (system: Saccharomyces cerevisiae)
A) 0.286

Q) // lookup protein stability index | system=Saccharomyces cerevisiae | key= CFFFPCFSFRFL
A) 0.296

Q) Could you share what protein stability index was measured for KIKQIKINNKIN , tested on Saccharomyces cerevisiae?
A) 0.092

Q) Quick check: protein stability index on Saccharomyces cerevisiae, item IPGGRPLLVEVR ?
A) 0.264

Q) Param readout = protein stability index; param system = Saccharomyces cerevisiae; param query = VVLWVVCWGCWK ; response: value
A) 0.205

Q) Please tell me: protein stability index of GRGLRVCWVWSG , system Saccharomyces cerevisiae?
A) 0.18

Q) Give protein stability index (Saccharomyces cerevisiae) of the following sequence: GLVVVVRLQYSP
A) 0.299

Q) Item RNDCAYHVLQIV with Saccharomyces cerevisiae - protein stability index?
A) 0.202

Q) Param readout= protein stability index; system= Saccharomyces cerevisiae; entry= FLDYLLFIFFFF ; returns value.
A) 0.392

Q) Form: Entry = KKIKKYTRKLKI | System = Saccharomyces cerevisiae | protein stability index = ____
A) 0.383

Q) Entry WKNIHGVFVFVM , system Saccharomyces cerevisiae: what protein stability index was measured?;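 note: PSI is a weighted mean of sequencing reads over stability bins, variants kept only with over 10 reads, mCherry proximal and sfGFP distal, peptide attached via GGGS linker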
A) 0.284

All values here come from the supplement of paper PMC10724198.
